experiment: Oral bioavailability in dog at 0.5 mg/kg; format: ADME, organism-based, Canis lupus familiaris; conditions: in vivo
readout type: bioavailability (%)

COC(=O)Nc1ccc(-c2ccnc([C@H](Cc3ccccc3)NC(=O)/C=C/c3cc(Cl)ccc3-n3cnnn3)c2)cc1 34

###

assay: Clearance in dog at 0.2 to 0.5 mg/kg, po or 0.2 to 0.4 mg/kg, iv administered as cassette dose; assay type: ADME, organism-based, Canis lupus familiaris; details: in vivo
This listing pairs molecules with measured clearance.
readout type: clearance (mL/min/kg)

COC(=O)Nc1ccc(-c2cc([C@H](Cc3ccccc3)NC(=O)/C=C/c3cc(Cl)ccc3-n3cnnn3)cnn2)cc1 18.2
COC(=O)Nc1ccc(-c2cc([C@H](CC(=O)N3CC[C@@H](O)C3)NC(=O)/C=C/c3cc(Cl)ccc3-n3cnnn3)c(Cl)nn2)cc1 24.7
COC(=O)Nc1ccc(-c2cnnc([C@H](Cc3ccccc3)NC(=O)/C=C/c3cc(Cl)ccc3-n3cnnn3)c2)cc1 8.9
COC(=O)Nc1ccc(-c2cc([C@H](Cc3ccccc3)NC(=O)/C=C/c3cc(Cl)ccc3-n3cnnn3)nnc2C)cc1 9.2
COC(=O)Nc1ccc(-c2cc([C@H](Cc3ccc(F)cc3)NC(=O)/C=C/c3cc(Cl)ccc3-n3cnnn3)nnc2Cl)cc1 5.1
COC(=O)Nc1ccc(-c2cc([C@H](Cc3ccccc3)NC(=O)/C=C/c3cc(Cl)ccc3-n3cnnn3)c(Cl)nn2)cc1 15.5
COC(=O)Nc1ccc(-c2cc([C@H](Cc3ccccc3)NC(=O)/C=C/c3cc(Cl)ccc3-n3cnnn3)nnc2Cl)cc1 6.3

###

target: Coagulation factor X (Homo sapiens)
Sequence (P00742 41-179 limits assumed): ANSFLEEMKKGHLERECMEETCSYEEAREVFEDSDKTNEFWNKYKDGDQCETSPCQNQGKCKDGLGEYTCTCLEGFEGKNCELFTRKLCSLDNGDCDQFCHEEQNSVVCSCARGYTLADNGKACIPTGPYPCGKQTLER
Sequence (P00742 235-488 limits assumed): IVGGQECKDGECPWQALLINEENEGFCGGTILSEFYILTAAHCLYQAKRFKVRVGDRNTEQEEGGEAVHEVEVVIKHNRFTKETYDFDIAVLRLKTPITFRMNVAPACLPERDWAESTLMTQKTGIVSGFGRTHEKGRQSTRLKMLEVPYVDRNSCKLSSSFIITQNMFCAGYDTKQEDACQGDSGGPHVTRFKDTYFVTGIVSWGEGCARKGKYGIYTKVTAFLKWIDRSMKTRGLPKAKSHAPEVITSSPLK
readout type: Ki (nM)

COC(=O)Nc1ccc(-c2cc([C@H](Cc3ccccc3)NC(=O)/C=C/c3cc(Cl)ccc3-n3cnnn3)nnc2Cl)cc1 200

###

This listing pairs compounds with measured Ki.
experiment: Inhibition of human chymotrypsin
readout type: Ki

COC(=O)Nc1ccc(-c2cnnc([C@H](Cc3ccccc3)NC(=O)/C=C/c3cc(Cl)ccc3-n3cnnn3)c2)cc1 11.9 µM
COC(=O)Nc1ccc(-c2cc([C@H](Cc3ccccc3)NC(=O)/C=C/c3cc(Cl)ccc3-n3cnnn3)nnc2Cl)cc1 > 27.2 µM
COC(=O)Nc1ccc(-c2cc([C@H](Cc3ccccc3)NC(=O)/C=C/c3cc(Cl)ccc3-n3cnnn3)c(Cl)nn2)cc1 29.6 µM
COC(=O)Nc1ccc(-c2cc([C@H](Cc3ccccc3)NC(=O)/C=C/c3cc(Cl)ccc3-n3cnnn3)nnc2C)cc1 > 27.2 µM

###

molecular target: Vitamin K-dependent protein C (Homo sapiens); experiment: Inhibition of human activated protein C
Sequence (P04070 43-197 limits assumed): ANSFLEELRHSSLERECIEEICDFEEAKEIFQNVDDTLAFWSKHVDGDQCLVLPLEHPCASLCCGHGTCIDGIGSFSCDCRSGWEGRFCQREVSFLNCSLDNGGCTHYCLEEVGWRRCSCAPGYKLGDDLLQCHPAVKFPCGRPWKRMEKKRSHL
Sequence (P04070 212-461 limits assumed): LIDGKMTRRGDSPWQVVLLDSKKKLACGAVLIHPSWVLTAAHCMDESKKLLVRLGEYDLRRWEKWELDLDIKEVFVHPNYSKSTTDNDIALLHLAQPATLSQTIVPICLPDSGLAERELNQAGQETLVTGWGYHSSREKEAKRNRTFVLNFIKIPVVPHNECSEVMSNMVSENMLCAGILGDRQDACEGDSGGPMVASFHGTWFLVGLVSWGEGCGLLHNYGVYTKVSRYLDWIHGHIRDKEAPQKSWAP
pKi: −log10 of the molar value.
This listing pairs molecules with measured pKi.
readout type: pKi

COC(=O)Nc1ccc(-c2cc([C@H](Cc3ccccc3)NC(=O)/C=C/c3cc(Cl)ccc3-n3cnnn3)c(Cl)nn2)cc1 4.79
COC(=O)Nc1ccc(-c2cnnc([C@H](Cc3ccccc3)NC(=O)/C=C/c3cc(Cl)ccc3-n3cnnn3)c2)cc1 4.17

###

This listing pairs molecules with measured half-life.
experiment: Half life in dog at 0.2 to 0.5 mg/kg, po or 0.2 to 0.4 mg/kg, iv administered as cassette dose; format: ADME, organism-based, Canis lupus familiaris; conditions: in vivo
readout type: half-life (h)

COC(=O)Nc1ccc(-c2cc([C@H](Cc3ccccc3)NC(=O)/C=C/c3cc(Cl)ccc3-n3cnnn3)cnn2)cc1 1.1
COC(=O)Nc1ccc(-c2cnnc([C@H](Cc3ccccc3)NC(=O)/C=C/c3cc(Cl)ccc3-n3cnnn3)c2)cc1 1.8
COC(=O)Nc1ccc(-c2cc([C@H](Cc3ccccc3)NC(=O)/C=C/c3cc(Cl)ccc3-n3cnnn3)nnc2Cl)cc1 7.1
COC(=O)Nc1ccc(-c2cc([C@H](Cc3ccccc3)NC(=O)/C=C/c3cc(Cl)ccc3-n3cnnn3)nnc2C)cc1 2
COC(=O)Nc1ccc(-c2cc([C@H](Cc3ccc(F)cc3)NC(=O)/C=C/c3cc(Cl)ccc3-n3cnnn3)nnc2Cl)cc1 6.7
COC(=O)Nc1ccc(-c2cc([C@H](CC(=O)N3CC[C@@H](O)C3)NC(=O)/C=C/c3cc(Cl)ccc3-n3cnnn3)c(Cl)nn2)cc1 0.9
COC(=O)Nc1ccc(-c2cc([C@H](Cc3ccccc3)NC(=O)/C=C/c3cc(Cl)ccc3-n3cnnn3)c(Cl)nn2)cc1 1.8

###

target: Plasma kallikrein (Homo sapiens, UniProt P03952); assay: Inhibition of human plasma kallikrein
Sequence (P03952 20-390 limits assumed): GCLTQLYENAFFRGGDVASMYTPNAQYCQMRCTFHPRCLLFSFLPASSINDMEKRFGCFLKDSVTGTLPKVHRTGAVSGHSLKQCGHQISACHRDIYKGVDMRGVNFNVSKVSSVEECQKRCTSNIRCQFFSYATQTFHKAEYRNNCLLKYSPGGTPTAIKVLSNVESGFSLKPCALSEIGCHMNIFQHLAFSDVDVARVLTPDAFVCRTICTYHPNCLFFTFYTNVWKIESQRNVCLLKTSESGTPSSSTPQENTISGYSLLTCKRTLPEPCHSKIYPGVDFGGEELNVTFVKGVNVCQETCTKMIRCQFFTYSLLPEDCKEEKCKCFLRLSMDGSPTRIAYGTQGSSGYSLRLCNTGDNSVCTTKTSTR
Sequence (P03952 391-638 limits assumed): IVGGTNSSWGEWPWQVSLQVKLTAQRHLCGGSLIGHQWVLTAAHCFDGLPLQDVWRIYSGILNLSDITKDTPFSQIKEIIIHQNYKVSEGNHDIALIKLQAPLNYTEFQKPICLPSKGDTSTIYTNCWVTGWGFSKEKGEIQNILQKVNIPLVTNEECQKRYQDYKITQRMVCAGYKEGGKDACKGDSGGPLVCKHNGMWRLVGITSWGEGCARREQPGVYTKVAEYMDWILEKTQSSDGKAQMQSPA
readout type: Ki (nM)

COC(=O)Nc1ccc(-c2cc([C@H](Cc3ccccc3)NC(=O)/C=C/c3cc(Cl)ccc3-n3cnnn3)nnc2C)cc1 1370
COC(=O)Nc1ccc(-c2cc([C@H](Cc3ccccc3)NC(=O)/C=C/c3cc(Cl)ccc3-n3cnnn3)c(Cl)nn2)cc1 192
COC(=O)Nc1ccc(-c2cnnc([C@H](Cc3ccccc3)NC(=O)/C=C/c3cc(Cl)ccc3-n3cnnn3)c2)cc1 268

###

biological target: Coagulation factor XI (Homo sapiens, UniProt P03951)
Sequence (P03951 19-387 limits assumed): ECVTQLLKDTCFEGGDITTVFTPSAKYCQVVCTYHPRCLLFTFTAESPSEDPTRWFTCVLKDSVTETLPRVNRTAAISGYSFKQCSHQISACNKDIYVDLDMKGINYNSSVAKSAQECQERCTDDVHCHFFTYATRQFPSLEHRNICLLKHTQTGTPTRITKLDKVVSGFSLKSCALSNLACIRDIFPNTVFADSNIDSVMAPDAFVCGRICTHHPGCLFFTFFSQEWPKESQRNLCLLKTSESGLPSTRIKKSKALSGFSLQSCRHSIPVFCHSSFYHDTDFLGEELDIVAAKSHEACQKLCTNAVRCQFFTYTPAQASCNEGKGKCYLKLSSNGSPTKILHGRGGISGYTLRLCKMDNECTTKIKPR
Sequence (P03951 388-625 limits assumed): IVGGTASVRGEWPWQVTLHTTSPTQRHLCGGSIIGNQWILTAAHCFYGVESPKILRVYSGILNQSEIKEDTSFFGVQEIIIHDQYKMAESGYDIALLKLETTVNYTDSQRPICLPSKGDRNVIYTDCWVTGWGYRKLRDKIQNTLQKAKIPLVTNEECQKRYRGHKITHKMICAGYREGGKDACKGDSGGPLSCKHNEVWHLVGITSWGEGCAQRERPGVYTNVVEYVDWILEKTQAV
pKi: −log10 of the molar value.
readout type: pKi

COC(=O)Nc1ccc(-c2cc([C@H](C[C@@H]3CCCN(C(C)=O)C3)NC(=O)/C=C/c3cc(Cl)ccc3-n3cnnn3)nnc2Cl)cc1 7.05
COC(=O)Nc1ccc(-c2cc([C@H](CC(=O)N3CCN(C)CC3)NC(=O)/C=C/c3cc(Cl)ccc3-n3cnnn3)c(Cl)nn2)cc1 8.40
COC(=O)Nc1ccc(-c2cc([C@H](Cc3ccccc3)NC(=O)/C=C/c3cc(Cl)ccc3-n3cnnn3)c(=O)[nH]n2)cc1 7.66
COC(=O)Nc1ccc(-c2cc([C@H](CC(=O)N3CC[C@@H](O)C3)NC(=O)/C=C/c3cc(Cl)ccc3-n3cnnn3)nnc2Cl)cc1 7.59

###

experiment: Oral bioavailability in dog at 0.2 to 0.5 mg/kg; type: ADME, organism-based, Canis lupus familiaris; details: in vivo
readout type: bioavailability (%)

COC(=O)Nc1ccc(-c2cc([C@H](Cc3ccccc3)NC(=O)/C=C/c3cc(Cl)ccc3-n3cnnn3)nnc2Cl)cc1 16
COC(=O)Nc1ccc(-c2cc([C@H](Cc3ccc(F)cc3)NC(=O)/C=C/c3cc(Cl)ccc3-n3cnnn3)nnc2Cl)cc1 12
COC(=O)Nc1ccc(-c2cc([C@H](Cc3ccccc3)NC(=O)/C=C/c3cc(Cl)ccc3-n3cnnn3)nnc2C)cc1 14
COC(=O)Nc1ccc(-c2cnnc([C@H](Cc3ccccc3)NC(=O)/C=C/c3cc(Cl)ccc3-n3cnnn3)c2)cc1 18

###

target: Trypsin (Homo sapiens, UniProt P07477+P07478+P35030); assay: Inhibition of human trypsin; format: protein assay
This listing pairs compounds with measured Ki.
readout type: Ki

COC(=O)Nc1ccc(-c2cc([C@H](Cc3ccccc3)NC(=O)/C=C/c3cc(Cl)ccc3-n3cnnn3)nnc2Cl)cc1 > 6.22 µM
COC(=O)Nc1ccc(-c2cc([C@H](Cc3ccccc3)NC(=O)/C=C/c3cc(Cl)ccc3-n3cnnn3)c(Cl)nn2)cc1 3.73 µM
COC(=O)Nc1ccc(-c2cnnc([C@H](Cc3ccccc3)NC(=O)/C=C/c3cc(Cl)ccc3-n3cnnn3)c2)cc1 > 6.22 µM
COC(=O)Nc1ccc(-c2cc([C@H](Cc3ccccc3)NC(=O)/C=C/c3cc(Cl)ccc3-n3cnnn3)nnc2C)cc1 > 6.22 µM

###

assay: Half life in human liver microsomes pretreated for 5 mins followed by NADPH addition by UV-LC/MS analysis; type: ADME, microsome
readout type: half-life

COC(=O)Nc1ccc(-c2cc([C@H](Cc3ccncc3)NC(=O)/C=C/c3cc(Cl)ccc3-n3cnnn3)nnc2Cl)cc1 2.8 min
COC(=O)Nc1ccc(-c2cnnc([C@H](Cc3ccccc3)NC(=O)/C=C/c3cc(Cl)ccc3-n3cnnn3)c2)cc1 9.1 min
COC(=O)Nc1ccc(-c2cc([C@H](Cc3ccccc3)NC(=O)/C=C/c3cc(Cl)ccc3-n3cnnn3)c(Cl)nn2)cc1 31 min
COC(=O)Nc1ccc(-c2cc([C@H](Cc3cccc(F)c3)NC(=O)/C=C/c3cc(Cl)ccc3-n3cnnn3)nnc2Cl)cc1 12 min
COC(=O)Nc1ccc(-c2cc([C@H](CC(=O)N3CC[C@@H](O)C3)NC(=O)/C=C/c3cc(Cl)ccc3-n3cnnn3)c(Cl)nn2)cc1 36 min
COC(=O)Nc1ccc(-c2cc([C@H](Cc3ccc(F)cc3)NC(=O)/C=C/c3cc(Cl)ccc3-n3cnnn3)nnc2Cl)cc1 20 min
COC(=O)Nc1ccc(-c2cc([C@H](Cc3ccccc3)NC(=O)/C=C/c3cc(Cl)ccc3-n3cnnn3)nnc2C)cc1 5.1 min
COC(=O)Nc1ccc(-c2cc([C@H](Cc3ccccc3)NC(=O)/C=C/c3cc(Cl)ccc3-n3cnnn3)cnn2)cc1 9.6 min
COC(=O)Nc1ccc(-c2cc([C@H](Cc3ccccc3)NC(=O)/C=C/c3cc(Cl)ccc3-n3cnnn3)nnc2Cl)cc1 8.6 min

###

target: Plasminogen (Homo sapiens, UniProt P00747); test: Inhibition of human plasmin
Sequence (P00747 97-580 limits assumed): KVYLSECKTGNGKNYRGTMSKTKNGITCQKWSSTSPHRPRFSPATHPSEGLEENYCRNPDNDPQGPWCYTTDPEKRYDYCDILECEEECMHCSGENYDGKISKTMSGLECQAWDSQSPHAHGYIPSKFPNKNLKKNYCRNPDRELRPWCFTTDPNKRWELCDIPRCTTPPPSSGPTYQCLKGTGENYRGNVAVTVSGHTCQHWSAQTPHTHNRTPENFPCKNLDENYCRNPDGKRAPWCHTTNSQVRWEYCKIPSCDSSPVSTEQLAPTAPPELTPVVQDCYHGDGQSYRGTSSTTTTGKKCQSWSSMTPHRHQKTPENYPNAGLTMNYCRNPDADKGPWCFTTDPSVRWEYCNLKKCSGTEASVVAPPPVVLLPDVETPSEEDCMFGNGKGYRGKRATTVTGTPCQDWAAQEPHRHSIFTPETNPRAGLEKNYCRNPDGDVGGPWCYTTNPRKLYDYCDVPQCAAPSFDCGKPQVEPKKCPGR
Sequence (P00747 581-810 limits assumed): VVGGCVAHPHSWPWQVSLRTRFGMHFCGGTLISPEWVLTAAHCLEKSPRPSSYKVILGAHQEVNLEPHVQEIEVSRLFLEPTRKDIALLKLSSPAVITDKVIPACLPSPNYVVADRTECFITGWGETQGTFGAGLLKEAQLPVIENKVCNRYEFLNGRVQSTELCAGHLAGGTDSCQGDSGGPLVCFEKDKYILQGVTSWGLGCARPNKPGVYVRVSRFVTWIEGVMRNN
pKi: −log10 of the molar value.
This listing pairs molecules with measured pKi.
readout type: pKi

COC(=O)Nc1ccc(-c2cc([C@H](Cc3ccccc3)NC(=O)/C=C/c3cc(Cl)ccc3-n3cnnn3)nnc2Cl)cc1 4.12
COC(=O)Nc1ccc(-c2cc([C@H](Cc3ccccc3)NC(=O)/C=C/c3cc(Cl)ccc3-n3cnnn3)c(Cl)nn2)cc1 5.35
COC(=O)Nc1ccc(-c2cnnc([C@H](Cc3ccccc3)NC(=O)/C=C/c3cc(Cl)ccc3-n3cnnn3)c2)cc1 4.42
